- measurement.target: the molecule itself
- method: cross-linking; Ca2+-loaded proteins: 0.02% glutaric aldehyde, 16 h, 20 °C, protein 1 mg/mL, 20 mM Tricine-KOH pH 7.4, 50 mM KCl, 1 mM DTT, 1 mM CaCl2; SDS-PAGE, Coomassie, densitometry; self-association
Listed here: items and their measured Dimer 50 kDa, %.

{"protein": "human recoverin mutant W156A (natural protein, UniProt P35243 1-200, looked up, myristoylated (fraction of non-myristoylated forms did not exceed 16%), recoverin, human, UniProt P35243, C-terminal 'gray' cluster mutant; Parent construct as m1; source: E. coli, expressed and purified similarly to the rWT protein (phenyl-Sepharose, Toyopearl SuperQ-650M)) MGNSKSGALSKEILEELQLNTKFSEEELCSWYQSFLKDCPTGRITQQQFQSIYAKFFPDTDPKAYAQHVFRSFDSNLDGTLDFKEYVIALHMTTAGKTNQKLEWAFSLYDVDGNGTISKNEVLEIVMAIFKMITPEDVKLLPDDENTPEKRAEKIAKYFGKNDDDKLTEKEFIEGTLANKEILRLIQFEPQKVKEKMKNA", "Dimer 50 kDa, % (%)": 25}
{"protein": "human recoverin mutant F172A (natural protein, UniProt P35243 1-200, looked up, myristoylated (fraction of non-myristoylated forms did not exceed 16%), recoverin, human, UniProt P35243, C-terminal 'black' cluster mutant; Parent construct as m1; source: E. coli, expressed and purified similarly to the rWT protein (phenyl-Sepharose, Toyopearl SuperQ-650M)) MGNSKSGALSKEILEELQLNTKFSEEELCSWYQSFLKDCPTGRITQQQFQSIYAKFFPDTDPKAYAQHVFRSFDSNLDGTLDFKEYVIALHMTTAGKTNQKLEWAFSLYDVDGNGTISKNEVLEIVMAIFKMITPEDVKLLPDDENTPEKRAEKIWKYFGKNDDDKLTEKEAIEGTLANKEILRLIQFEPQKVKEKMKNA", "Dimer 50 kDa, % (%)": 29.3}
{"protein": "human recoverin mutant Q46A (natural protein, UniProt P35243 1-200, looked up, myristoylated (fraction of non-myristoylated forms did not exceed 16%), recoverin, human, UniProt P35243, N-terminal 'gray' cluster mutant; Parent construct as m1; source: E. coli, expressed and purified similarly to the rWT protein (phenyl-Sepharose, Toyopearl SuperQ-650M)) MGNSKSGALSKEILEELQLNTKFSEEELCSWYQSFLKDCPTGRITAQQFQSIYAKFFPDTDPKAYAQHVFRSFDSNLDGTLDFKEYVIALHMTTAGKTNQKLEWAFSLYDVDGNGTISKNEVLEIVMAIFKMITPEDVKLLPDDENTPEKRAEKIWKYFGKNDDDKLTEKEFIEGTLANKEILRLIQFEPQKVKEKMKNA", "Dimer 50 kDa, % (%)": 27.3}
{"protein": "human recoverin mutant F35A (natural protein, UniProt P35243 1-200, looked up, myristoylated (fraction of non-myristoylated forms did not exceed 16%), recoverin, human, UniProt P35243, N-terminal 'black' cluster mutant; Parent construct as m1; source: E. coli, expressed and purified similarly to the rWT protein (phenyl-Sepharose, Toyopearl SuperQ-650M)) MGNSKSGALSKEILEELQLNTKFSEEELCSWYQSALKDCPTGRITQQQFQSIYAKFFPDTDPKAYAQHVFRSFDSNLDGTLDFKEYVIALHMTTAGKTNQKLEWAFSLYDVDGNGTISKNEVLEIVMAIFKMITPEDVKLLPDDENTPEKRAEKIWKYFGKNDDDKLTEKEFIEGTLANKEILRLIQFEPQKVKEKMKNA", "Dimer 50 kDa, % (%)": 31.7}
{"protein": "human recoverin mutant K119A (natural protein, UniProt P35243 1-200, looked up, myristoylated (fraction of non-myristoylated forms did not exceed 16%), recoverin, human, UniProt P35243, C-terminal 'gray' cluster mutant; Parent construct as m1; source: E. coli, expressed and purified similarly to the rWT protein (phenyl-Sepharose, Toyopearl SuperQ-650M)) MGNSKSGALSKEILEELQLNTKFSEEELCSWYQSFLKDCPTGRITQQQFQSIYAKFFPDTDPKAYAQHVFRSFDSNLDGTLDFKEYVIALHMTTAGKTNQKLEWAFSLYDVDGNGTISANEVLEIVMAIFKMITPEDVKLLPDDENTPEKRAEKIWKYFGKNDDDKLTEKEFIEGTLANKEILRLIQFEPQKVKEKMKNA", "Dimer 50 kDa, % (%)": 24.4}
{"protein": "human recoverin mutant F70A (natural protein, UniProt P35243 1-200, looked up, myristoylated (fraction of non-myristoylated forms did not exceed 16%), recoverin, human, UniProt P35243, N-terminal 'gray' cluster mutant; Parent construct as m1; source: E. coli, expressed and purified similarly to the rWT protein (phenyl-Sepharose, Toyopearl SuperQ-650M)) MGNSKSGALSKEILEELQLNTKFSEEELCSWYQSFLKDCPTGRITQQQFQSIYAKFFPDTDPKAYAQHVARSFDSNLDGTLDFKEYVIALHMTTAGKTNQKLEWAFSLYDVDGNGTISKNEVLEIVMAIFKMITPEDVKLLPDDENTPEKRAEKIWKYFGKNDDDKLTEKEFIEGTLANKEILRLIQFEPQKVKEKMKNA", "Dimer 50 kDa, % (%)": 29.3}
{"protein": "human recoverin mutant V122A (natural protein, UniProt P35243 1-200, looked up, myristoylated (fraction of non-myristoylated forms did not exceed 16%), recoverin, human, UniProt P35243, C-terminal 'gray' cluster mutant; Parent construct as m1; source: E. coli, expressed and purified similarly to the rWT protein (phenyl-Sepharose, Toyopearl SuperQ-650M)) MGNSKSGALSKEILEELQLNTKFSEEELCSWYQSFLKDCPTGRITQQQFQSIYAKFFPDTDPKAYAQHVFRSFDSNLDGTLDFKEYVIALHMTTAGKTNQKLEWAFSLYDVDGNGTISKNEALEIVMAIFKMITPEDVKLLPDDENTPEKRAEKIWKYFGKNDDDKLTEKEFIEGTLANKEILRLIQFEPQKVKEKMKNA", "Dimer 50 kDa, % (%)": 27.1}
{"protein": "human recoverin mutant F49A (natural protein, UniProt P35243 1-200, looked up, myristoylated (fraction of non-myristoylated forms did not exceed 16%), recoverin, human, UniProt P35243, N-terminal 'gray' cluster mutant; Parent construct as m1; source: E. coli, expressed and purified similarly to the rWT protein (phenyl-Sepharose, Toyopearl SuperQ-650M)) MGNSKSGALSKEILEELQLNTKFSEEELCSWYQSFLKDCPTGRITQQQAQSIYAKFFPDTDPKAYAQHVFRSFDSNLDGTLDFKEYVIALHMTTAGKTNQKLEWAFSLYDVDGNGTISKNEVLEIVMAIFKMITPEDVKLLPDDENTPEKRAEKIWKYFGKNDDDKLTEKEFIEGTLANKEILRLIQFEPQKVKEKMKNA", "Dimer 50 kDa, % (%)": 25.5}
